FYI, the data here is from the supplement of paper PMC7877785.

// self-splicing fitness (ln) lookup, one value per entry
Experiment: self-splicing fitness, log relative to wild type (ln ratio); higher = more splicing; Tetrahymena group I intron in knt gene, E. coli kanamycin selection, DiMSum; sequences stand for … in CUCUCU…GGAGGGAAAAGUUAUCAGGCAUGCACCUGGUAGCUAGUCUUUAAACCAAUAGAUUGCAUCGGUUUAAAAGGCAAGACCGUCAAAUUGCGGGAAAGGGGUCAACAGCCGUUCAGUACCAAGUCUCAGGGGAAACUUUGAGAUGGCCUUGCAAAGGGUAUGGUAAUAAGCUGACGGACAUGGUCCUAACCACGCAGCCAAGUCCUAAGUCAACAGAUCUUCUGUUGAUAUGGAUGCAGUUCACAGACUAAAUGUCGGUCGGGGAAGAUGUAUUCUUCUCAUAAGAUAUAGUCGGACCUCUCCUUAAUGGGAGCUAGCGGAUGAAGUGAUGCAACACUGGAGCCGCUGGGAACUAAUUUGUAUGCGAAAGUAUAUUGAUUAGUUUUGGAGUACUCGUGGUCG;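 note: selection with 25 µg/mL kanamycin versus none on LB agar overnight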
Conditions: 30 °C
Lab note: record the figure alone, no unit after it.

Check out these entries, answers already filled in.
>  <sequence_record>
CCCUAGCAAUAUUACGGCAC

>  <self-splicing fitness (ln)>
-3.42

$$$$
>  <sequence_record>
ACACAGCAAUAUUACGUUGA

>  <self-splicing fitness (ln)>
-1.91

$$$$
>  <sequence_record>
AUAUAGCAAUAUUACGUGAA

>  <self-splicing fitness (ln)>
-1.57

$$$$
>  <sequence_record>
AAGGAGCAAUAUUACGCGAU

>  <self-splicing fitness (ln)>
-2.06

$$$$
>  <sequence_record>
CUGAAGCAAUAUUACGUCUA

>  <self-splicing fitness (ln)>
-0.846

$$$$

INPUT: Return value of self-splicing fitness (ln) for input GUAUAGCAAUAUUACGGCGC , no commentary.
OUTPUT: -0.053

INPUT: Return value of self-splicing fitness (ln) for input CUGAAGCAAUAUUACGGGGA , no commentary.
OUTPUT: -3.06

INPUT: Return value of self-splicing fitness (ln) for input GGCUAGCAAUAUUACGGAAU , no commentary.
OUTPUT: -0.705

====

Assay: self-splicing fitness, log relative to wild type (ln ratio); higher = more splicing; Tetrahymena group I intron in knt gene, E. coli kanamycin selection, DiMSum; sequences stand for … in CUCUCU…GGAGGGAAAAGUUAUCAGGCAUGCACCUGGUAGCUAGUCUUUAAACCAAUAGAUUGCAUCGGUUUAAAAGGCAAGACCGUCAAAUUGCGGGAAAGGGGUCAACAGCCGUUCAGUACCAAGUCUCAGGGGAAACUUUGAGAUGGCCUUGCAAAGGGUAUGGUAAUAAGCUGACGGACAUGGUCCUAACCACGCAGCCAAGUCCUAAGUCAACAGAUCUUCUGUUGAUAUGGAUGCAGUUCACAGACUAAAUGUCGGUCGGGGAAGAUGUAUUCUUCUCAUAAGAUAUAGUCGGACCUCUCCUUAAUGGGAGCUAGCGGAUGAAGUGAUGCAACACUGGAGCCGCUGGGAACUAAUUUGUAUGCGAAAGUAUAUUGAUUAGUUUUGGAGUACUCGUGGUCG
Conditions: 30 °C
experimental_endpoint: self-splicing fitness (ln)
Lab note: record the figure alone, no unit after it.

>  <sequence_record>
AAUGAGCAAUAUUACGGAUU

>  <self-splicing fitness (ln)>
-2.38

$$$$
>  <sequence_record>
AUCCAGCAAUAUUACGCCCG

>  <self-splicing fitness (ln)>
-1.84

$$$$
>  <sequence_record>
UCAAAGCAAUAUUACGAGCA

>  <self-splicing fitness (ln)>
-1.07

$$$$
>  <sequence_record>
CGUAAGCAAUAUUACGGCCG

>  <self-splicing fitness (ln)>
-0.668

$$$$
>  <sequence_record>
UACGAGCAAUAUUACGUAGA

>  <self-splicing fitness (ln)>
-3.47

$$$$
>  <sequence_record>
CGAAAGCAAUAUUACGGGAU

>  <self-splicing fitness (ln)>
-2.98

$$$$
>  <sequence_record>
GUUUAGCAAUAUUACGUCUG

>  <self-splicing fitness (ln)>
-2.05

$$$$
>  <sequence_record>
ACCGAGCAAUAUUACGGCGA

>  <self-splicing fitness (ln)>
-0.182

$$$$

INPUT: Return value of self-splicing fitness (ln) for input GGACAGCAAUAUUACGUAUA , no commentary.
OUTPUT: -0.645
